molecular target: RSV prefusion F (preF), DS-Cav1 (Respiratory Syncytial Virus, UniProt P03420 26-513); assay: BLI, IgG on anti-human IgG sensor, 100 nM antigen, 1:1 fit
I'd be grateful if you could share measured Kd for these entries.
// units = nM; emit number, no label

Query: Give its Kd value. Item: ADI-41466 (antibody, V domains shown, also called Ab 750; Antibody Number 750) VH: QVQLVQSGAEVKKPGASVKVSCKASGYTFNFYYMHWVRQAPGQGLEWMGWINPKSGGTSYAQKFQGRVIMTGDTSISTTYMELSRLRSDDTAVYYCARADTGLELDVWGQGTTVTVSS VL: QSALIQPASVSGSPGQSITISCTGTSSDVGGYNYVSWYQQHPGKAPKLILYDVSKRPSGVSNRFSGSKSGNTASLTISGLQAEDESDYFCSSYTRSNTVVFGGGTKVTVL
Result: 2.05

Query: Kd; subject: ADI-41459 (antibody, V domains shown, also called Ab 743; Antibody Number 743) VH: QVQLVESGGGLVQPGGSLRLSCAASGFPFSAYGINWVRQAPGKGLEWVSYISSTSTTIKYADSVKGRFTISRDDAKNSLYLQLRSLRPEDTAVYYCAGGVWSGYYIDFWGQGTPVTVSS VL: NFMLTQPQSVSESPGKTVTISCTRSSGSIGSNFVQWYQQRPGSSPTTVIYEDYQRPSGVPDRFSGSIDSSSNSASLTISGLKTEDEADYYCQSYDADMMVFGGGTKLTVL
Result: 1.89

Query: Give its Kd value. Item: ADI-41468 (antibody, V domains shown, also called Ab 752; Antibody Number 752) VH: QVQLQQWGAGPLKSSETLSLTCEVYGGPFSGYSWSWIRQPPGKGLEWIGEINHSGSTNYNPSLKSRVSFSVDTSKNQFSLKLSSVTAADTAVYYCARGAGFCTSTSCPPGLYYYYGMDVWGHGTTVTVSS VL: SYELTQPLSVSVALGQTARITCGGNNIESKNVHWYQQMPGLAPVMVIYRDTNRPSGIPERFSGSNSGNTATLTISRAQAGDEADYYCQVWDSGTVIFGGGTKLTVL
Result: 0.716

Query: Returns the measured Kd for the input binder. Input: ADI-41536 (antibody, V domains shown, also called Ab 808; Antibody Number 808) VH: EVQLVESGAGLLKPSETLSLTCVVYGGSFSGYYWSWIRQPPGKGLEWVGDINHSTTTNYNPSLESRITISIDTSKNQFSLNLSSVTAADSAVYYCARGPKECTSSSCDRFGVDYFYYGMDVWGRGTTVTVSS VL: QSVLTQPPSVSGAPGQRVTISCTGSSANIGAGYDVHWYQQFPGTAPKLLIFGNSNRPSGVPDRFSGSKSGTSASLAITGLQAEDEADYYCQSYDGTLGGWVFGGGTQLTVL
Result: 3.05

Query: What value of Kd has been reported for the following binder? ADI-41535 (antibody, V domains shown) VH: QVTLKESGPALVKPTQTLTLTCTFSGFSLSTSRMCVSWIRQSPGKALEWLARIDWDDDKFFSTSLKTRLTISKDTSRNQVVLTMTNMDPVDTATYYCARTTVYASGGYYLYYFDYWGQGTLVTVSS VL: DIQLTQSPSSLPASVGDRVTITCRASQRIASYLNWYQQKPGKAPKVLIYAASNLQSGVPSRFSGSGSGTDFTLTINSLQPEDFATYYCQQSYTTPWTFGQGTKVEIK
Result: 1.93
